Catalogue of compounds with associated pIC50
Target: wild type LRRK2 overexpressed in recombinant HEK-293T cells (Homo sapiens)
Sequence (Q5S007 whole entry): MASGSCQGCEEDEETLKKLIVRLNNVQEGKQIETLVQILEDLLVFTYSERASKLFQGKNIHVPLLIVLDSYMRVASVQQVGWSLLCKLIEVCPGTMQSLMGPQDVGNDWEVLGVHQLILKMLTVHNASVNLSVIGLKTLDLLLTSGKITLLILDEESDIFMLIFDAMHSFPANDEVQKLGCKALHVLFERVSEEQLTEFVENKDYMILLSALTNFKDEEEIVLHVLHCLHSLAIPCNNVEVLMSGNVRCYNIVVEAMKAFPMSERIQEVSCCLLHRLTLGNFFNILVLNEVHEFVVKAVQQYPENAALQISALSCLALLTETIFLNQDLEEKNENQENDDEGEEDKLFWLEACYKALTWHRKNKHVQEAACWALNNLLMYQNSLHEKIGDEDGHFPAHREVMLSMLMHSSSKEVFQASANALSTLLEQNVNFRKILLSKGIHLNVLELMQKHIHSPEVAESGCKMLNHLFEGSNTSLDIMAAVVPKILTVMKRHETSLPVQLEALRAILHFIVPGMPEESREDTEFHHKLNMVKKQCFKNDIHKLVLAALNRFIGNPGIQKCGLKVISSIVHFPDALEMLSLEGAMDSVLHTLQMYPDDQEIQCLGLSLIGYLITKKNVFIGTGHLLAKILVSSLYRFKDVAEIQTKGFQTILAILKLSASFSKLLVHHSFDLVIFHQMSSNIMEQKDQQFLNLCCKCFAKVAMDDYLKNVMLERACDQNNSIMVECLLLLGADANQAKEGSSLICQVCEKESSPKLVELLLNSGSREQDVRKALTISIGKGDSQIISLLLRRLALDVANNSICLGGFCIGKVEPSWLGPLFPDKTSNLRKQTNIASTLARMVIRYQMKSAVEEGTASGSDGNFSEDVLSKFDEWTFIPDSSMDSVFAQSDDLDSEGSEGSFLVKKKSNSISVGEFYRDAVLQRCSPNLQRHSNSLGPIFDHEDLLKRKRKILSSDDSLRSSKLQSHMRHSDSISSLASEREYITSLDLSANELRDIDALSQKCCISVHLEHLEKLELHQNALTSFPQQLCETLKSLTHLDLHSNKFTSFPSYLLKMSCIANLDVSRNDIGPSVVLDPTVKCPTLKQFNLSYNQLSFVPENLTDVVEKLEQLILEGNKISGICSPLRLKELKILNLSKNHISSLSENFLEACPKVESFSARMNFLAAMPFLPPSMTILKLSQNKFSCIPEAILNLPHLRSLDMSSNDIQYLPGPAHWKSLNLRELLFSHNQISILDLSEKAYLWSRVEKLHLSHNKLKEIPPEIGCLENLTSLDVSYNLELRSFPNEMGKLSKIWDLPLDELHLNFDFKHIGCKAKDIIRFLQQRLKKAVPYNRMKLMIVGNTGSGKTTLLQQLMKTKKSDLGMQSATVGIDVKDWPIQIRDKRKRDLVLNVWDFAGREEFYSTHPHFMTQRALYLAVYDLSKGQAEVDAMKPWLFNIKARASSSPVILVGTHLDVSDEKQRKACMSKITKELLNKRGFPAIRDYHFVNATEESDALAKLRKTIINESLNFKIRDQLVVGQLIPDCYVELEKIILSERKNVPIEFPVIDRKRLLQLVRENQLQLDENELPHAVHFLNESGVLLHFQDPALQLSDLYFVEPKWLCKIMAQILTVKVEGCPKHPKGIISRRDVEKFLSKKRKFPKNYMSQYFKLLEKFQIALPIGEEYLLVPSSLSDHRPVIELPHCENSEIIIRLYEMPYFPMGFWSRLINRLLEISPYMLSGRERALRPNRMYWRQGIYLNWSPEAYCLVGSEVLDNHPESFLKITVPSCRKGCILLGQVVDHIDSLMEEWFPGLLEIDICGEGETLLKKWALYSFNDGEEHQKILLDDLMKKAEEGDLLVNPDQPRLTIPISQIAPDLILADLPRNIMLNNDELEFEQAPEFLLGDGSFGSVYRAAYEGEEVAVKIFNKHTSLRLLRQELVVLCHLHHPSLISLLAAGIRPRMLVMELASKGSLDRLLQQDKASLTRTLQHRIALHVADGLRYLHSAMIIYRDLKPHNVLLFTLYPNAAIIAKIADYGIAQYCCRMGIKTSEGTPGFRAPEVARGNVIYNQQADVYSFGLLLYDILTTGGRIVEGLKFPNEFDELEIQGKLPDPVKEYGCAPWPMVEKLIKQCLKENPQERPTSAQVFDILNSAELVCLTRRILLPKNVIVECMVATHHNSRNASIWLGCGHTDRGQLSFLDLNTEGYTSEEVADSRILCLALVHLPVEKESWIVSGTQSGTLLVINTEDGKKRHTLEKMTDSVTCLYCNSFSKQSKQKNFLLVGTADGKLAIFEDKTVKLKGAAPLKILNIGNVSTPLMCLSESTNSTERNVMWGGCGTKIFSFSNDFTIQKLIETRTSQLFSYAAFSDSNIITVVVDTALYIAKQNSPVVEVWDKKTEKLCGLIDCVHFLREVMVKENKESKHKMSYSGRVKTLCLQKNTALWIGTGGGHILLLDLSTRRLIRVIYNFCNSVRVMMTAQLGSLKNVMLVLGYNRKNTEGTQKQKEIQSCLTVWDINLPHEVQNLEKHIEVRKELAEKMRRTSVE
Assay: pS935 LRRK2 Cell Assay (HTRF, phospho-LRRK2 Ser935)
Details: LRRK2 Inhibition, Table 8, 2 hours compound incubation
pIC50 field: float, defined as -log10 of concentration (mol/L).

1) Cc1cccc(CNC(=O)Cc2nc3cnc4ccc(C#N)cc4c3n2[C@@H]2CCO[C@H](C)C2)n1 [Compound 152] | 8.47
2) COCCCNC(=O)Cc1nc2cnc3ccc(C#N)cc3c2n1[C@@H]1CCO[C@H](C)C1 [Compound 166] | 7.92
3) COCCn1ccc(NC(=O)Cc2nc3cnc4ccc(C#N)cc4c3n2[C@@H]2CCO[C@H](C)C2)n1 [Compound 174] | 8.27
4) C[C@@H]1C[C@H](n2c(CC(=O)N[C@@H]3C[C@H]3F)nc3cnc4ccc(C#N)cc4c32)CCO1 [Compound 246] | 7.28
5) C[C@@H]1C[C@H](n2c(CC(=O)N[C@H]3C[C@H]3F)nc3cnc4ccc(C#N)cc4c32)CCO1 [Compound 289] | 7.26
6) C[C@@H]1C[C@H](n2c(C3CCN(C(=O)c4cnn(C)c4)CC3)nc3cnc4ccc(C#N)cc4c32)CCO1 [Compound 118] | 6.48
7) CN1CC(n2c(CC(=O)NCC3CC3)nc3cnc4ccc(C#N)cc4c32)CCC1=O (single isomer, unassigned) [Compound 90] | 6.10
8) C[C@@H]1C[C@H](n2c(CC(=O)NCc3cnn(C)c3)nc3cnc4ccc(C#N)cc4c32)CCO1 [Compound 87] | 7.56
9) C[C@@H]1C[C@H](n2c(CC(=O)Nc3cnc(C4CC4)nc3)nc3cnc4ccc(C#N)cc4c32)CCO1 [Compound 300] | 7.97

Kindly review the next compound as well.
Prompt line: What is its pIC50 for wild type LRRK2 overexpressed in recombinant HEK-293T cells (Homo sapiens)? Entry: C[C@@H]1C[C@H](n2c(CC(=O)NCC(C)(C)CO)nc3cnc4ccc(C#N)cc4c32)CCO1 [Compound 241]
Response line: 7.11

* * *

Biological target: LRRK2 wild type enzyme (Homo sapiens)
experimentalEndpoint: IC50
Kindly write the number and append the unit.

Prompt line: Give its IC50 value. Item: CN1CC(n2c(CC(=O)NCC3CC3)nc3cnc4ccc(C#N)cc4c32)CCC1=O (single isomer, unassigned) [Compound 91]
Response line: 40.4 nM

Prompt line: Let us now turn to COc1nc(C)nc(C)c1NC(=O)Cc1nc2cnc3ccc(C#N)cc3c2n1[C@@H]1CCO[C@H](C)C1
Response line: 0.338 nM

Prompt line: Moving on to C[C@@H]1C[C@H](n2c(CNC(=O)c3ccccn3)nc3cnc4ccc(C#N)cc4c32)CCO1
Response line: 0.591 nM

Prompt line: For Cc1oncc1CNC(=O)Cc1nc2cnc3ccc(C#N)cc3c2n1[C@@H]1CCO[C@H](C)C1 then?
Response line: 0.337 nM

Prompt line: Another compound to look at: C[C@@H]1C[C@H](n2c(CC3CN(S(C)(=O)=O)C3)nc3cnc4ccc(C#N)cc4c32)CCO1
Response line: 5.03 nM

Prompt line: Query C[C@@H]1C[C@H](n2c(CNC(=O)OC(C)(C)C)nc3cnc4ccc(C#N)cc4c32)CCO1 next
Response line: 5.24 nM

Prompt line: What about C[C@@H]1C[C@H](n2c(C3CC(=O)N(CC4CC4)C3)nc3cnc4ccc(Cl)cc4c32)CCO1 (stereo partly drawn) ?
Response line: 1.21 nM

Prompt line: Please answer likewise for COc1nc(C2CC2)ncc1NC(=O)Cc1nc2cnc3ccc(C#N)cc3c2n1[C@@H]1CCO[C@H](C)C1
Response line: 0.433 nM

Prompt line: What do you get for Cc1cncc(NC(=O)Cc2nc3cnc4ccc(C#N)cc4c3n2[C@@H]2CCO[C@H](C)C2)c1 ?
Response line: 0.379 nM

Prompt line: Lookup Cc1nc(C)c(NC(=O)Cc2nc3cnc4ccc(Cl)cc4c3n2[C@@H]2CCO[C@H](C)C2)c(C)n1
Response line: 0.294 nM

Prompt line: Entry to check: C[C@@H]1C[C@H](n2c([C@H]3CCN(C(=O)C4CC4)C3)nc3cnc4ccc(C#N)cc4c32)CCO1
Response line: 9.62 nM

Prompt line: Now try Cc1nccnc1NC(=O)Cc1nc2cnc3ccc(C#N)cc3c2n1[C@@H]1CCO[C@H](C)C1 .
Response line: 0.583 nM

Prompt line: Repeat with CC1CC(n2c(CC3CNC3)nc3cnc4ccc(C#N)cc4c32)CCO1 (stereo not drawn)
Response line: 9.07 nM

Prompt line: Try C[C@@H]1C[C@H](n2c(C(F)(F)C(=O)NCC3CC3)nc3cnc4ccc(C#N)cc4c32)CCO1 next.
Response line: 1.34 nM

Prompt line: Ok, now C[C@@H]1C[C@H](n2c(CC(=O)NCc3cc(C4CC4)on3)nc3cnc4ccc(C#N)cc4c32)CCO1
Response line: 0.356 nM

Prompt line: One more compound: C[C@@H]1C[C@H](n2c(CC(=O)Nc3cc(C4CC4)on3)nc3cnc4ccc(C#N)cc4c32)CCO1
Response line: 0.525 nM

Prompt line: Then what about the compound C[C@@H]1C[C@H](n2c(CC(=O)NCC3CC3)nc3cnc4ccc(C#N)cc4c32)CCO1 ?
Response line: 0.336 nM

Prompt line: Please do the same for COCC1(CNC(=O)Cc2nc3cnc4ccc(C#N)cc4c3n2[C@@H]2CCO[C@H](C)C2)CC1 as well.
Response line: 0.419 nM

* * *

Target: wild type LRRK2 overexpressed in recombinant HEK-293T cells (Homo sapiens)
Construct: host or cells: HEK293T (transient transfection with pCMV-LRRK2 WT plasmid)
Assay: pS935 LRRK2 Cell Assay (HTRF, phospho-LRRK2 Ser935)
Assay type: cell-based
Conditions: LRRK2 Inhibition, Table 8, 2 hours compound incubation
experimentalEndpoint: pIC50
# pIC50: negative log10 of molar concentration; output just the value

1) COc1cc(F)c(NC(=O)Cc2nc3cnc4ccc(C#N)cc4c3n2[C@@H]2CCO[C@H](C)C2)cn1 | 8.00
2) C[C@@H]1C[C@H](n2c(CN3CCC(C(=O)O)C3)nc3cnc4ccc(C#N)cc4c32)CCO1 (stereo partly drawn) | 5.29

Prompt line: Consider the molecule CNC(=O)Cc1nc2cnc3ccc(C#N)cc3c2n1[C@@H]1CCO[C@H](C)C1 and give its measured pIC50.
Response line: 7.09

Prompt line: What would you report for C[C@@H]1C[C@H](n2c(CC(=O)NC3(C(F)(F)F)CC3)nc3cnc4ccc(C#N)cc4c32)CCO1 ?
Response line: 6.93

Prompt line: Another: C[C@@H]1C[C@H](n2c(CC(=O)NCC3(CO)CC3)nc3cnc4ccc(C#N)cc4c32)CCO1
Response line: 6.97

Prompt line: Do the same for C[C@@H]1C[C@H](n2c(CC(=O)NC3(c4ncccn4)CC3)nc3cnc4ccc(C#N)cc4c32)CCO1 please
Response line: 6.98

Prompt line: Follow-up entry: C[C@@H]1C[C@H](n2c(CN3CCCC3=O)nc3cnc4ccc(C#N)cc4c32)CCO1
Response line: 6.35

Prompt line: What do we get for C[C@@H]1C[C@H](n2c(CC(N)=O)nc3cnc4ccc(C#N)cc4c32)CCO1 ?
Response line: 6.84

Prompt line: Entry to check: C[C@@H]1C[C@H](n2c(C3CC(=O)N(c4cnn(C)c4)C3)nc3cnc4ccc(Cl)cc4c32)CCO1 (stereo partly drawn)
Response line: 7.37

Prompt line: Check C[C@@H]1C[C@H](n2c(C3CC(=O)N([C@@H]4CCOC4)C3)nc3cnc4ccc(C#N)cc4c32)CCO1 (stereo partly drawn) too.
Response line: 6.26

Prompt line: And then C[C@@H]1C[C@H](n2c(CC(=O)Nc3ncccn3)nc3cnc4ccc(Cl)cc4c32)CCO1 , what is it?
Response line: 8.74

Prompt line: Now the same for C[C@@H]1C[C@H](n2c(C3CC(=O)N(c4ccn(C)n4)C3)nc3cnc4ccc(C#N)cc4c32)CCO1 (stereo partly drawn)
Response line: 6.84

Prompt line: Okay, and C[C@@H]1C[C@H](n2c(CC(=O)N(C)CC(F)(F)F)nc3cnc4ccc(C#N)cc4c32)CCO1 ?
Response line: 6.14

Prompt line: Please do the same for C[C@@H]1C[C@H](n2c(CC(=O)NCC(F)(F)CO)nc3cnc4ccc(C#N)cc4c32)CCO1 as well.
Response line: 6.61

Prompt line: Check Cc1cc(NC(=O)Cc2nc3cnc4ccc(C#N)cc4c3n2[C@@H]2CCO[C@H](C)C2)no1 too.
Response line: 8.17

* * *

// UniProtKB Q5S007 IC50 records
Hey, just the number and the unit after it is fine.

Here is how some compounds turned out for IC50.
1) C[C@@H]1C[C@H](n2c(CC(=O)Nc3cc(C4CCC4)no3)nc3cnc4ccc(C#N)cc4c32)CCO1 [Compound 340] | 1530 pM
2) C[C@@H]1C[C@H](n2c(CC(=O)Nc3cccnc3)nc3cnc4ccc(C#N)cc4c32)CCO1 [Compound 320] | 571 pM
3) C[C@@H]1C[C@H](n2c(CC(=O)N[C@@H]3CCCc4cccnc43)nc3cnc4ccc(C#N)cc4c32)CCO1 [Compound 357] | 628 pM

Could you now consider this next compound?
Prompt line: May I ask what IC50 has been recorded for Cc1nc(C)c(NC(=O)Cc2nc3cnc4ccc(C#N)cc4c3n2[C@@H]2CCO[C@H](C)C2)c(C)n1 [Compound 253] ?
Response line: 538 pM
